- assay.system: human serum albumin (HSA) (Homo sapiens)
- Construct: purchased Daicel Chemical Industries CHIRALPAK HSA, column-batch H13L-2405
- Sequence (P02768 25-609): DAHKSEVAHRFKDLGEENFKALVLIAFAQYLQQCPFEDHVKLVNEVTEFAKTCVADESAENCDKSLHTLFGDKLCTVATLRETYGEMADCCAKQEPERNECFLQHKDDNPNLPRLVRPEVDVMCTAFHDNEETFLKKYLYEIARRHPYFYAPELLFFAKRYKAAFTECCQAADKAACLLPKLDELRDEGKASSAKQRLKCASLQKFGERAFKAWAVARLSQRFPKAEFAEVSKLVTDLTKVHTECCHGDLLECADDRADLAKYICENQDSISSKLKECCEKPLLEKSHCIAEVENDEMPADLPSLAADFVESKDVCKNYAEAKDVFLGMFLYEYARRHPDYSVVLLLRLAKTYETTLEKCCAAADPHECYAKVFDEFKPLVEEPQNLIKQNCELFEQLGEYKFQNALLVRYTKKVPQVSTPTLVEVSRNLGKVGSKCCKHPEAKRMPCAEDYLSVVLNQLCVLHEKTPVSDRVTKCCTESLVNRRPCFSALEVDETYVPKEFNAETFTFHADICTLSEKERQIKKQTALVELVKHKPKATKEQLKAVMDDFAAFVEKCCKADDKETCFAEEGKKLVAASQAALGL
- assay.protocol: Plasma protein binding using bioaffinity chromatography (CHIRALPAK HSA)
- Format: in vitro ADME
- protocol.conditions: human; bioaffinity chromatography on HSA stationary phase; read-out: Plasma protein binding (%PPB) / Binding to human serum albumin (converted)
recorded.metric: fraction unbound at 0.5 mg/ml

1. COCC1=C(C(=O)O[11CH3])C(c2ccc(F)c(F)c2)N(C(=O)NCCCN2CCC(c3cccc(NC(C)=O)c3)CC2)C(=O)N1 (centres unmarked) [[^11C]SNAP-7941] | 0.2
2. COCC1=C(C(=O)OCC[18F])C(c2ccc(F)c(F)c2)N(C(=O)NCCCN2CCC(c3cccc(NC(C)=O)c3)CC2)C(=O)N1 (centres unmarked) [[^18F]FE@SNAP] | 0.23
